Taken from patent US4505929A.

assayProtocol: Cytotoxicity to HeLa cells in tissue culture testing
Assay type: cell-based
measurementContext: human, G.I. = growth inhibition: at the concentration shown the compound inhibited growth of the tissue culture, read-out: Cytotoxicity (G.I.)
Here the recorded MCC is given for each entry.

CSc1ccc(Oc2ccc([N+](=O)[O-])cc2[N+](=O)[O-])cc1 | 50 to 100 µg/mL
CCN(CC)S(=O)(=O)c1ccc(Oc2ccc(S(C)(=O)=O)cc2)cc1 | 100 µg/mL
CN(C)S(=O)(=O)c1ccc(Oc2ccc(S(C)(=O)=O)cc2)cc1 | 100 µg/mL
CS(=O)(=O)c1ccc(Oc2ccc(Cl)c(Cl)c2)cc1 | 50 to 100 µg/mL

# input for lookup
Query: # lookup: MCC of "CS(=O)(=O)c1ccc(Oc2ccc(Cl)cc2)cc1"
Response: 10 µg/mL

----------
Test system: Coxsackie A21 virus (Cox A21)
assayProtocol: Tissue culture antiviral test (HeLa cells), Cox A21
Assay type: cell-based
measurementContext: 48 and 72 hours post-treatment, read-out: Lowest concentration necessary to cause a 50 percent reduction in cytopathic effect, Cox A21
Here the recorded EC50 is given for each entry.
Give just the number in µg/mL; leave the unit off.

CS(=O)(=O)c1ccc(Oc2ccc(Cl)c(Cl)c2)c(Cl)c1 | 12.5

# input for lookup
Query: # lookup: EC50 of "CN(C)S(=O)(=O)c1ccc(Oc2ccc(S(=O)(=O)c3ccccc3)cc2)cc1"
Response: 0.625

----------
assayProtocol: Cytotoxicity to HeLa cells in tissue culture testing
Format: cell-based
measurementContext: human, concentration found to be toxic to the cell, observed at 48 and 72 hours, read-out: Cytotoxicity
measurementKind: MCC (µg/mL)
Give just the number in µg/mL; leave the unit off.

CC(=O)c1ccc(Oc2ccc(S(C)(=O)=O)cc2)cc1 [Example 3] | 50
CS(=O)(=O)c1ccc(Oc2ccc(Br)cc2)cc1 [Example 9] | 12.5

Query: # lookup: MCC of CS(=O)(=O)c1ccc(Oc2ccc(OC(F)(F)C(Cl)Cl)cc2)cc1 [Example 22]
Response: 2.5

Query: # lookup: MCC of CS(=O)(=O)c1ccc(Oc2ccc(O)cc2)cc1 [Example 21, 4-(4-(Methylsulfonyl)phenoxy)phenol]
Response: 25

Query: # lookup: MCC of C[S+]([O-])c1ccc(Oc2ccc(C#N)cc2)cc1 (stereo not drawn) [Example 7]
Response: 25

Query: # lookup: MCC of CS(=O)(=O)c1ccc(Oc2ccc(C#N)cc2)cc1 [Example 8]
Response: 50

Query: # lookup: MCC of CS(=O)(=O)c1ccc(Oc2ccc(Cl)c(Cl)c2)c(Cl)c1 [Example 14]
Response: 50

Query: # lookup: MCC of CS(=O)(=O)c1ccc(Oc2ccc(OCC#N)cc2)cc1 [Example 23]
Response: 10

----------
assayProtocol: Cytotoxicity to HeLa cells in tissue culture testing
Type: cell-based
measurementContext: human, concentration found to be toxic to the cell, observed at 48 and 72 hours, read-out: Cytotoxicity
Here the recorded MCC is given for each entry.
Give just the number in µg/mL; leave the unit off.

CS(=O)(=O)c1ccc(Oc2ccc(Cc3ccccc3)cc2)cc1 | 5

# input for lookup
Query: # lookup: MCC of C[S+]([O-])c1ccc(Oc2ccc([N+](=O)[O-])cc2[N+](=O)[O-])cc1 (stereo not drawn)
Response: 12.5

----------
Here the recorded EC50 is given for each entry.
System: rhinovirus type 64 (RV-64)
assayProtocol: Tissue culture antiviral test (HeLa cells), RV-64
Assay type: cell-based
measurementContext: Enterovirus, 48 and 72 hours post-treatment, read-out: Lowest concentration necessary to cause a 50 percent reduction in cytopathic effect, RV-64

Answered cases to consult:
CC(=O)c1ccc(Oc2ccc(S(C)(=O)=O)cc2)cc1 [Example 3] | < 6.25 µg/mL
Cc1cc(Oc2ccc(Cl)c(Cl)c2)ccc1S(C)(=O)=O [Example 19] | < 3.12 µg/mL

# input for lookup
Query: # lookup: EC50 of C[S+]([O-])c1ccc(Oc2ccc(Cl)c(Cl)c2)cc1 (stereo not drawn) [Example 6]
Response: < 0.31 µg/mL
